- System: U87 human glioma cells
- procedure-details: cell migration assay in modified Boyden chamber
- Format: cell-based
- run-conditions: Homo sapiens, U-87 MG; U87 cells, CBD 0.01 μM to 9 μM, migration evaluated after 6 hours, versus vehicle treatment; read-out: IC50 of inhibition of cell migration
metric: IC50 (µM)
Report only the number, with the unit µM understood.

Entry under test: C=C(C)[C@@H]1CCC(C)=C[C@H]1c1c(O)cc(CCCCC)cc1O . Its IC50 was 5.05

Ref: patent US20190255011A1
